// data source = patent US8889876B2

# System: Colo320 human rectal cancer cells
# Measurement Protocol: CCK-8 proliferation inhibition, Colo320
# Type: cell-based
# Condition Info: Homo sapiens, COLO 320; compound concentration 100 μM, CCK-8 method
# Protocol: Detecting the inhibition rate of the compound concentrations of 100 μM and 10 μM to Hut78 T-cell Leukemia cell, Jurkat E6-1 human T-cell lymphoma, PANC-1 human pancreatic cancer cells, A549 human lung cancer cells, K562 human chronic myeloid leukemia cells, Hep3B2.1-7 human liver cancer cells, MDA-MB-435s human breast cancer cells, Colo320 human rectal cancer cells and PC-3 human prostate cancer using CCK-8 method.
The label depends only on inhibition at 100 µM: Satisfied if it is at least 50%, Not satisfied if it is smaller.

Quick check, inhibition at 100 µM >= 50%? COc1cccc(/C=C/C(=O)NCc2ccc(C(=O)Nc3ccncc3N)cc2)c1
Satisfied

// query: Nc1ncccc1NC(=O)c1ccc(CNC(=O)/C=C/c2cccnc2)cc1
Satisfied

Cc1ccc(CCC(=O)NCc2ccc(C(=O)Nc3cccnc3N)cc2)cc1 , same question.
Not satisfied

Same read-out for Nc1ncccc1NC(=O)c1ccc(CNC(=O)/C=C/c2ccc3ccccc3c2)cc1 ?
Not satisfied

And COc1ccc(/C=C/C(=O)NCc2ccc(C(=O)Nc3cccnc3N)cc2)cc1 ?
Not satisfied

And the next one, Nc1cnccc1NC(=O)c1ccc(CNC(=O)/C=C/c2ccccc2)cc1 ?
Satisfied

Field entry: Nc1cnccc1NC(=O)c1ccc(CNC(=O)OCc2cccnc2)cc1
Satisfied

---

# Test system: Hut78 T-cell Leukemia cell
# Measurement Protocol: CCK-8 proliferation inhibition, Hut78
# Assay type: cell-based
# Condition Info: Homo sapiens, HuT78, 10 μM, read-out: Hut-78 (inhibition %)
Label MET when inhibition at 10 µM >= 20%; otherwise NOT MET.

Reference set (3 entries):
Test whether the compound COc1cc(/C=C/C(=O)NCc2ccc(C(=O)Nc3cccnc3N)cc2)cc(OC)c1OC records inhibition at 10 µM of 20% or higher.
NOT MET

COc1cc(COC(=O)NCc2ccc(C(=O)Nc3cccnc3N)cc2)cc(OC)c1OC , same question.
NOT MET

How about this compound: Nc1ncccc1NC(=O)c1ccc(CNC(=O)CCc2ccc(F)cc2)cc1
NOT MET

More entries:
// inclusive: inhibition at 10 µM at least 20%? input: Nc1ncccc1NC(=O)c1ccc(CNC(=O)/C=C/c2ccc3ccccc3c2)cc1
NOT MET

Similarly, Cc1ccc(CCC(=O)NCc2ccc(C(=O)Nc3cccnc3N)cc2)cc1 ?
NOT MET

Try this compound next: Nc1ncccc1NC(=O)c1ccc(CNC(=O)OCc2ccc([N+](=O)[O-])cc2)cc1
MET

Note, next up: Cc1ccc(/C=C/C(=O)NCc2ccc(C(=O)Nc3ccncc3N)cc2)cc1
MET

Again, but for Nc1ncccc1NC(=O)c1ccc(CNC(=O)OCc2ccccc2)cc1
NOT MET

---

# System: MDA-MB-435s human breast cancer cells
# Measurement Protocol: CCK-8 proliferation inhibition, MDA-MB-435s
# Format: cell-based
# Condition Info: Homo sapiens, MDA-MB-435S; compound concentration 100 μM, CCK-8 method
Value Type: inhibition at 100 µM (%)
Write the number in % without appending the unit.

Study these solved cases before continuing.
So what does the record say about inhibition at 100 µM for COc1cc(COC(=O)NCc2ccc(C(=O)Nc3ccncc3N)cc2)cc(OC)c1OC ?
82.9

Okay, and Nc1ncccc1NC(=O)c1ccc(CNC(=O)OCc2cccnc2)cc1 ?
87.5

Thanks! And COc1cccc(/C=C/C(=O)NCc2ccc(C(=O)Nc3ccncc3N)cc2)c1 ?
77.7

For Nc1ncccc1NC(=O)c1ccc(CNC(=O)/C=C/c2ccc([N+](=O)[O-])cc2)cc1 then?
61.2

Others:
Data request, read-out inhibition at 100 µM, for Nc1cnccc1NC(=O)c1ccc(CNC(=O)OCc2ccccc2)cc1
85.5

Now the same for Nc1cnccc1NC(=O)c1ccc(CNC(=O)/C=C/c2ccc([N+](=O)[O-])cc2)cc1
73.6

Moving on to the next compound: Cc1ccc(/C=C/C(=O)NCc2ccc(C(=O)Nc3ccncc3N)cc2)cc1
88.8

Thanks! And Nc1ncccc1NC(=O)c1ccc(CNC(=O)/C=C/c2ccccc2)cc1 ?
73.3

Also need COc1ccc(CCC(=O)NCc2ccc(C(=O)Nc3cccnc3N)cc2)cc1 , thanks.
22.8

---

# System: Jurkat E6-1 human T-cell lymphoma
# Measurement Protocol: CCK-8 proliferation inhibition, Jurkat E6-1
# Type: cell-based
# Condition Info: Homo sapiens, Jurkat E6.1, 10 μM
# key: entry, value: inhibition at 10 µM
Respond with the bare value in %.

Record excerpt, results attached:
Which inhibition at 10 µM value is on record for Cc1ccc(/C=C/C(=O)NCc2ccc(C(=O)Nc3cccnc3N)cc2)cc1 [V-27] ?
58.3

Request: COc1cc(/C=C/C(=O)NCc2ccc(C(=O)Nc3cccnc3N)cc2)cc(OC)c1OC [V-34]
4.7

Same lookup for Nc1ncccc1NC(=O)c1ccc(CNC(=O)/C=C/c2ccccc2)cc1 [V-25] , please.
20.3

Ok, now Nc1ncccc1NC(=O)c1ccc(CNC(=O)/C=C/c2cccnc2)cc1 [V-42]
62.4

Now consider Cc1ccc(COC(=O)NCc2ccc(C(=O)Nc3ccncc3N)cc2)cc1 [V-10] .
27.2

Ok, now COc1ccc(COC(=O)NCc2ccc(C(=O)Nc3ccncc3N)cc2)cc1 [V-12]
36.4

Next up: Cc1ccc(CCC(=O)NCc2ccc(C(=O)Nc3ccncc3N)cc2)cc1 [V-51]
14.8

Would you mind doing COc1cc(COC(=O)NCc2ccc(C(=O)Nc3ccncc3N)cc2)cc(OC)c1OC [V-14] as well?
25.3

For the next question, use this molecule.
So what does the record say about inhibition at 10 µM for Nc1ncccc1NC(=O)c1ccc(CNC(=O)/C=C/c2ccc(F)cc2)cc1 [V-40] ?
31.6

---

# Test system: histone deacetylase
# Measurement Protocol: in vitro inhibition of histone deacetylase by HDAC inhibitor screening kit (Biovision K340-100)
# Format: biochemical
# Condition Info: 62.5 μM
Inhibition rate(%) overview
Value expressed in %; do not type the unit.

The following molecules have reported results that may help.
I would be grateful if you could share the reported Inhibition rate(%) for Cc1ccc(COC(=O)NCc2ccc(C(=O)Nc3cccnc3N)cc2)cc1 .
16.8

Quick one: COc1cccc(/C=C/C(=O)NCc2ccc(C(=O)Nc3ccncc3N)cc2)c1
56.1

Can you check COc1cccc(COC(=O)NCc2ccc(C(=O)Nc3ccncc3N)cc2)c1 next?
46.7

Proceed to Nc1ncccc1NC(=O)c1ccc(CNC(=O)OCc2ccccc2)cc1
10.3

Now try COc1ccc(COC(=O)NCc2ccc(C(=O)Nc3ccncc3N)cc2)cc1OC .
42.2

What do you have for COc1ccc(/C=C/C(=O)NCc2ccc(C(=O)Nc3cccnc3N)cc2)cc1OC ?
48.0

Do the same for COc1cc(COC(=O)NCc2ccc(C(=O)Nc3ccncc3N)cc2)cc(OC)c1OC please
32.9

Record: Nc1ccccc1NC(=O)c1ccc(CNC(=O)OCc2cccnc2)cc1 [MS-275, reference compound]
60.5

Now let's try a different one.
Form field: reported Inhibition rate(%) of Nc1cnccc1NC(=O)c1ccc(CNC(=O)/C=C/c2ccc([N+](=O)[O-])cc2)cc1
55.2

---

# System: histone deacetylase
# Measurement Protocol: in vitro inhibition of histone deacetylase by HDAC inhibitor screening kit (Biovision K340-100)
# Type: biochemical
# Condition Info: 3.91 μM
Criterion: Inhibition rate(%) meeting or surpassing 10%. Met: 1.0. Not met: 0.0.

Hello, I need to know if COc1ccc(/C=C/C(=O)NCc2ccc(C(=O)Nc3ccncc3N)cc2)cc1 has measured Inhibition rate(%) not below 10%. Thanks!
1.0

Param item: Cc1ccc(/C=C/C(=O)NCc2ccc(C(=O)Nc3ccncc3N)cc2)cc1
1.0

COc1cc(COC(=O)NCc2ccc(C(=O)Nc3ccncc3N)cc2)cc(OC)c1OC , same question.
1.0

Proceed to Nc1ccccc1NC(=O)c1ccc(CNC(=O)OCc2cccnc2)cc1 [MS-275, reference compound]
1.0

Further cases:
Dear colleague, could you confirm whether Nc1ncccc1NC(=O)c1ccc(CNC(=O)/C=C/c2cccnc2)cc1 has Inhibition rate(%) at or above 10%?
1.0

What would you report for COc1ccc(/C=C/C(=O)NCc2ccc(C(=O)Nc3cccnc3N)cc2)cc1OC ?
1.0

---

# Test system: histone deacetylase
# Measurement Protocol: in vitro inhibition of histone deacetylase by HDAC inhibitor screening kit (Biovision K340-100)
# Format: biochemical
# Condition Info: 62.5 μM
Value Type: Inhibition rate(%)
# number only, unit % dropped from output

Example results:
# query: Inhibition rate(%) of entry COc1cccc(/C=C/C(=O)NCc2ccc(C(=O)Nc3cccnc3N)cc2)c1
47.8

// query: Nc1ncccc1NC(=O)c1ccc(CNC(=O)/C=C/c2cccnc2)cc1
40.2

Lookup Nc1cnccc1NC(=O)c1ccc(CNC(=O)OCc2ccccc2)cc1
36.0

Another: COc1ccc(/C=C/C(=O)NCc2ccc(C(=O)Nc3ccncc3N)cc2)cc1
56.9

Let us now turn to Cc1ccc(/C=C/C(=O)NCc2ccc(C(=O)Nc3ccncc3N)cc2)cc1
56.8

What do we get for COc1cc(CCC(=O)NCc2ccc(C(=O)Nc3cccnc3N)cc2)cc(OC)c1OC ?
3.1

Quick one: COc1cc(COC(=O)NCc2ccc(C(=O)Nc3cccnc3N)cc2)cc(OC)c1OC
7.8

For Nc1cnccc1NC(=O)c1ccc(CNC(=O)OCc2cccnc2)cc1 then?
28.0

Others:
For the compound Nc1cnccc1NC(=O)c1ccc(CNC(=O)/C=C/c2ccccc2)cc1 , what Inhibition rate(%) is on record?
56.8

Nc1ncccc1NC(=O)c1ccc(CNC(=O)OCc2cccnc2)cc1 ?
19.8
